test system: U2OS; assay: Multiplex assay against U2OS; type: toxicity, cell-based; settings: human, 48 h, 10 µM, compound concentration 10 uM, replicate 2
We begin with a simple list: items and their reported Population Fragmented Nuclei (%).
Assay Endpoint: Population Fragmented Nuclei (%)

• CCCCCNC(=N)N/N=C/c1c[nH]c2ccc(OC)cc12.O=C(O)/C=C\C(=O)O [TEGASEROD MALEATE] = 64%
• N#CCNC(=O)c1ccc(-c2ccnc(Nc3ccc(N4CCOCC4)cc3)n2)cc1 = 33%
• Oc1cccc(-c2nc(N3CCOCC3)c3oc4ncccc4c3n2)c1 = 26%
• Cc1c(P(=S)(c2ccccc2)c2ccccc2)n2ccccc2[n+]1C/C=C/c1ccccc1.[Br-] = 75%

These data points were gathered from ChEMBL document CHEMBL4689842.
